Recorded values, source PubChem BioAssay AID651820.

experiment: qHTS Assay for Inhibitors of Hepatitis C Virus (HCV); settings: Huh7.5.1 HCVcc-Cre infection, luciferase reporter, 44 h; series mostly up to 41.8 µM
In all, about 340,000 compounds went through this assay and about 12,000 (3.5%) were called active. Not shown: some 18% with an inconclusive outcome. Calls come from the whole dose curve; as a rule, active = well fitted inhibition curve with a large enough effect; inconclusive = small, poorly fitted or top-dose-only effect, or another doubt; inactive = no such curve, though single readings can be large or run the other way. The list comes from a sample in which actives are over-represented; it also holds close analogues and randomly drawn compounds.
// allowed return values: 1 = active, 0 = inactive

(Q) Tell me the assay call for c1ccc(-c2nc(NCc3ccco3)c3ccccc3n2)cc1 please.
(A) 1

(Q) Tell me the assay call for O=c1oc2ccccc2cc1-c1csc(Nc2ccc(O)cc2)n1 please.
(A) 1

(Q) Tell me the assay call for O=C(Nc1ccncc1)c1cc2ccccc2o1 please.
(A) 0

(Q) Tell me the assay call for CCNc1nc(-c2cc3ccccc3o2)cs1 please.
(A) 0

(Q) Tell me the assay call for CCN1CCN(c2nc(Nc3cc(OC)ccc3OC)nc(Nc3cc(OC)ccc3OC)n2)CC1 please.
(A) 0

Further cases:
(Q) Tell me the assay call for COc1ccc(OC)c(Nc2nc(-c3ccc(O)c(O)c3)cs2)c1 please.
(A) 1
